Hey, just so you know, these numbers are from ChEMBL document CHEMBL1212922.

- TARGET_OR_SYSTEM: Kynurenine--oxoglutarate transaminase 1 (Homo sapiens)
- ASSAY_OVERVIEW: Inhibition of human recombinant MBP-KAT1 expressed in Escherichia coli BL21 assessed as conversion of L-kynurenine to kynurenic acid after 1 hr
pIC50: −log10 of the molar value.
QUANTITY_MEASURED: pIC50

Consider the molecule C[C@H]1COc2c(N3CCN(N)CC3)c(F)cc3c(=O)c(C(=O)O)cn1c23 and give its measured pIC50.
< 4.52

* * *

- TARGET_OR_SYSTEM: Kynurenine/alpha-aminoadipate aminotransferase, mitochondrial (Rattus norvegicus, UniProt Q64602)
- Sequence (Q64602 whole entry): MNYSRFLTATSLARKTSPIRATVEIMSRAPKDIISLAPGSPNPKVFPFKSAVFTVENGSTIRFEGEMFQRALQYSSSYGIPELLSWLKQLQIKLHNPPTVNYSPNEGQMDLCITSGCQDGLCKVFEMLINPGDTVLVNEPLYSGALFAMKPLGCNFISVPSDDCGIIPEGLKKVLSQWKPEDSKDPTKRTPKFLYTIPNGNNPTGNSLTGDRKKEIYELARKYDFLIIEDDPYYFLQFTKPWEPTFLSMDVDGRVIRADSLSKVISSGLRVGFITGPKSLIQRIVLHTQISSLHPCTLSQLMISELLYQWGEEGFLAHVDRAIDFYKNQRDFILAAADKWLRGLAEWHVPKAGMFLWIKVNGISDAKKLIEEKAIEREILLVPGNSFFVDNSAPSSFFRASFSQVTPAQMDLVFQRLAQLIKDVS
QUANTITY_MEASURED: pIC50
Remember, pIC50 is on a log scale: it is -log10 of the molar concentration.

Consider the compound C[C@H]1COc2c(N3CCN(N)CC3)c(F)cc3c(=O)c(C(=O)O)cn1c23 and give its measured pIC50.
6.00

* * *

- TARGET_OR_SYSTEM: Kynurenine--oxoglutarate transaminase 1 (Homo sapiens, UniProt Q16773)
- Sequence (Q16773 whole entry): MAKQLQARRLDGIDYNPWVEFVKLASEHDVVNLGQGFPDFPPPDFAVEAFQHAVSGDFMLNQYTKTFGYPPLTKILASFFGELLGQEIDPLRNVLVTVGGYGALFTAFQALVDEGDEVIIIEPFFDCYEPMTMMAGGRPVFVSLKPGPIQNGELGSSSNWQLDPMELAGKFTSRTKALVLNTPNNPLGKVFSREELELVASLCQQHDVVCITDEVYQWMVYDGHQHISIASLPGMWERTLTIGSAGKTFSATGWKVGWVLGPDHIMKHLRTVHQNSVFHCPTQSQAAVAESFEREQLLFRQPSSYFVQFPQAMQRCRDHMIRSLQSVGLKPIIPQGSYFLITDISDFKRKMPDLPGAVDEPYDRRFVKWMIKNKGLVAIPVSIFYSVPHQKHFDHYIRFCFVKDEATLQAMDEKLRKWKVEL
- ASSAY_OVERVIEW: Inhibition of KAT1 in human prefrontal cortex homogenates
- Format: tissue-based
pIC50: −log10 of the molar value.
QUANTITY_MEASURED: pIC50

# query: pIC50 | item C[C@H]1COc2c(N3CCN(N)CC3)c(F)cc3c(=O)c(C(=O)O)cn1c23 | system: Kynurenine--oxoglutarate transaminase 1 (Homo sapiens, UniProt Q16773)
< 4.52
